B1: Cytoplasmic polyadenylation element-binding protein 2, residues 513 to 575; numbered along this chain, Q7Z5Q1 (parent)
chain: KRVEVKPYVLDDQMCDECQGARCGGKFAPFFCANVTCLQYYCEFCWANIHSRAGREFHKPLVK

Variants of: B1
test name: abundance fitness (aPCA) (normalised: wild type 0, dead -1); higher = more abundant; growth selection in yeast, the domain comes from the species named
test parameters: Homo sapiens
Parameter class (string): assigned from measured abundance fitness. Ranges: A (below -0.3), B (-0.3 to below -0.1), C (-0.1 or more)

INPUT: Category of A21C :
OUTPUT: A

INPUT: Pick a category. Item: G54W
OUTPUT: B

INPUT: Into which category would you place A53P ?
OUTPUT: C

INPUT: Which class is correct for the following variant? F27M
OUTPUT: C

INPUT: Exam item: assign H58K to the correct category.
OUTPUT: A

INPUT: Class? Entry: A33V
OUTPUT: B

INPUT: Category of R2V :
OUTPUT: B

INPUT: Could you tell me which band Q39R belongs to?
OUTPUT: C

INPUT: Band for the recorded abundance fitness of C23K ?
OUTPUT: B

INPUT: # classify by abundance fitness band: K26G
OUTPUT: C

INPUT: // bin(item) where item = P60L
OUTPUT: A

INPUT: Kindly identify the class of I49C .
OUTPUT: A

INPUT: Which category fits this record: A28G
OUTPUT: A

INPUT: Could you place W46A in its proper category? Many thanks.
OUTPUT: A

INPUT: Just checking, what class would you give E4K here?
OUTPUT: B

INPUT: For V5Q , which abundance fitness bin applies?
OUTPUT: C

INPUT: Band of C32I ?
OUTPUT: A

INPUT: Hey, which category is C37V in, do you know?
OUTPUT: A

INPUT: # bin lookup: classify K63P by its abundance fitness
OUTPUT: C

INPUT: Please report the category associated with L38M , nothing else.
OUTPUT: C

INPUT: Sort A53C into one of the categories.
OUTPUT: C

INPUT: Which bin, given its abundance fitness, does P7F occupy?
OUTPUT: A

INPUT: Category of Y40K :
OUTPUT: B

INPUT: GET /class?item= E56W
OUTPUT: A

INPUT: Lab log: P29E — assign abundance fitness category
OUTPUT: B

INPUT: Hey, which category is V35D in, do you know?
OUTPUT: C

INPUT: Which bin, given its abundance fitness, does W46E occupy?
OUTPUT: A

INPUT: Which class is correct for the following variant? E17H
OUTPUT: C

INPUT: Determine which band this variant sits in: G20L
OUTPUT: A

INPUT: Place this variant in its band: D16G
OUTPUT: C

INPUT: Each variant maps to one class by abundance fitness. Which class for K59W ?
OUTPUT: A

INPUT: Which bin should I file Q13P under?
OUTPUT: B

INPUT: Which abundance fitness category applies to V9K here?
OUTPUT: C

INPUT: Class? Entry: Q13L
OUTPUT: B

INPUT: Please report the category associated with E4I , nothing else.
OUTPUT: B

INPUT: Any idea which band C45T is in?
OUTPUT: A

INPUT: Looking at A21I , which class would you pick?
OUTPUT: B

INPUT: Hello team, could you let me know which band the following variant falls into: S51K
OUTPUT: C

INPUT: Which bin should I file R52E under?
OUTPUT: C

INPUT: // return the class label for Y41A
OUTPUT: A

INPUT: Bin? A28R
OUTPUT: B

INPUT: Please indicate the class for C23N based on its abundance fitness.
OUTPUT: B

INPUT: Category of C32K , please.
OUTPUT: A

INPUT: Which class holds D11E ?
OUTPUT: C
